# Subject Of Test: human SGLT1 (Homo sapiens, UniProt P13866)
# Construct: expressed in transfected cells
# Sequence (P13866 1-664): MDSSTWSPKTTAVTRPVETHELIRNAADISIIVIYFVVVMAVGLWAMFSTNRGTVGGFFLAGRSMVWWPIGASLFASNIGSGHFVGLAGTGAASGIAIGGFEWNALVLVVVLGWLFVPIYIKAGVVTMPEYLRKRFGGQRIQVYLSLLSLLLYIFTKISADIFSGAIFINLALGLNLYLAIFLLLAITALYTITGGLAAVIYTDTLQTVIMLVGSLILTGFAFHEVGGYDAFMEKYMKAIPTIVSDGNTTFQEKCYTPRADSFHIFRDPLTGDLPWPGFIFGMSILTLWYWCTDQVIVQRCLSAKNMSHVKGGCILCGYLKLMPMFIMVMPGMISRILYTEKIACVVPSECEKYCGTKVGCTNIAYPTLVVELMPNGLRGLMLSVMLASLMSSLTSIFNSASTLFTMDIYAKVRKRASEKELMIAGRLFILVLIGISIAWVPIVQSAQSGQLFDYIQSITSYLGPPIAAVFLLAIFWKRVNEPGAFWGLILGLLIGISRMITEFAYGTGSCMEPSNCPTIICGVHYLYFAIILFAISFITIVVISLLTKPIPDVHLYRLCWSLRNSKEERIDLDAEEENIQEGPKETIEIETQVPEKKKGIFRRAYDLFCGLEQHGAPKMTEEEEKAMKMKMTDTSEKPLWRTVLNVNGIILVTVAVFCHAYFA
# Method Notes: Sodium-dependent 14C-methyl-α-D-glucopyranoside uptake in CHO-K1 cells stably expressing human SGLT1
# Assay type: cell-based
# Protocol Conditions: compound at 3 μM
Measured Endpoint: inhibition at 3 µM (%)

> print(dat)
                               smiles.entry                           subject.of.test   measured.endpoint  unit.descriptor  result.number
1  COc1cc(O)c([C@@H]2O[C@H](CO)C[C@H](O)[C@H]2O)cc1C(=O)c1cc2ccccc2s1  human SGLT1 (Homo sapiens, UniProt P13866)  inhibition at 3 µM                %              0
2  O=C(c1cc2ccccc2s1)c1cc([C@@H]2O[C@H](CO)C[C@H](O)[C@H]2O)c(O)cc1O  human SGLT1 (Homo sapiens, UniProt P13866)  inhibition at 3 µM                %             19
3  N#Cc1cc(O)c([C@@H]2O[C@H](CO)C[C@H](O)[C@H]2O)cc1Cc1cc2ccccc2s1  human SGLT1 (Homo sapiens, UniProt P13866)  inhibition at 3 µM                %             57
4  C=C(c1cc2ccccc2s1)c1cc([C@@H]2O[C@H](CO)C[C@H](O)[C@H]2O)c(O)cc1OC  human SGLT1 (Homo sapiens, UniProt P13866)  inhibition at 3 µM                %             43
5  COc1cc(O)c([C@@H]2O[C@H](CO)C[C@H](O)[C@H]2O)cc1C1(c2cc3ccccc3s2)CC1  human SGLT1 (Homo sapiens, UniProt P13866)  inhibition at 3 µM                %             49
6  Cc1cc(O)c([C@@H]2O[C@H](CO)C[C@H](O)[C@H]2O)cc1C(C)(C)c1cc2ccccc2s1  human SGLT1 (Homo sapiens, UniProt P13866)  inhibition at 3 µM                %             52

a. Cc1cc(O)c([C@@H]2O[C@H](CO)C[C@H](O)[C@H]2O)cc1C(=O)c1cc2ccccc2s1
b. C=C(c1cc2ccccc2s1)c1cc([C@@H]2O[C@H](CO)C[C@H](O)[C@H]2O)c(O)cc1C
c. CCc1cc(O)c([C@@H]2O[C@H](CO)C[C@H](O)[C@H]2O)cc1Cc1cc2ccccc2s1
In: Sort ascending by inhibition at 3 µM. Output spec: a listing of the labels in the requested order.
Out: a, b, c
(a: 0%, b: 41%, c: 95%)
